Cited source for all entries: patent US7439035B1

targetUnderTest: HIV-1 RT associated RNase H (Human immunodeficiency virus type 1 group M subtype B)
Construct: final concentration of 2.5 nM of the p51/p66 RT heterodimer in the assay; made in house
assayExplanation: Gel electrophoretic RNase H assay, inhibition of HIV-1 RT associated RNase H
Assay type: biochemical
statedConditions: 1.5 nM p51/p66 RT, 100 nM [32P]-RNA/DNA substrate, 37° C., densitometry of undegraded RNA; read-out: IC50 for BBNH obtained with the gel assay
measurementLabel: pIC50
Value format note: pIC50 is -log10 of concentration (mol/L); just state the number.

[ask] Give recorded pIC50 with HIV-1 RT associated RNase H (Human immunodeficiency virus type 1 group M subtype B) for the following compound: CC(C)(C)c1ccc(C(=O)NN=Cc2c(O)ccc3ccccc23)cc1
[reply] 5.52
